assay-system: T1, soluble human CD3 epsilon chain (human, UniProt P07766 23-126)
T1 construct: also called CD3ε
T1 sequence (P07766 23-126 limits assumed): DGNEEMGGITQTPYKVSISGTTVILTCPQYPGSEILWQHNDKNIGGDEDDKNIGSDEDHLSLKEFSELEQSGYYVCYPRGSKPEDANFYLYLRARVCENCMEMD
assay-protocol: SPR
pKd: −log10 of the molar value.

>  <binder>
TR01H098-E22Hh/none-Hi-Kn010G3/L0011-k0 (antibody, V domains shown, one-arm) VH: QVQLVESGGGLVQPGRSLRLSCAASGFTFSNAWMHWVRQAPGKGLEWVAQIKDKSQNYAPYYAESVKGRFTISRDDSKNSLYLQMNSLKTEDTAVYYCRYVHYAAGYGVDAWGQGTTVTVSS VL: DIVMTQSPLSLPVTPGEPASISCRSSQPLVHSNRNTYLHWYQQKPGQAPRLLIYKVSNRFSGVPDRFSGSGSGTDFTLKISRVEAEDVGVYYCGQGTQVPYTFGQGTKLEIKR

>  <pKd>
7.04

$$$$
>  <binder>
TR01H082-E2702GsKsc/none-Hi-E2704sE/L0011-k0 (antibody, human IgG4 S228P, kappa, N297A, V domains shown, one-arm) VH: QVQLVESGGGLVQPGRSLRLSCAASGFTFSNAWMHWVRQAPGKGLEWVAQIKDKSQNYATYYAESVKGRFTISRDDSKNSLYLQMNSLKTEDTAVYYCRYVHYAAGYGVDAWGQGTTVTVSS VL: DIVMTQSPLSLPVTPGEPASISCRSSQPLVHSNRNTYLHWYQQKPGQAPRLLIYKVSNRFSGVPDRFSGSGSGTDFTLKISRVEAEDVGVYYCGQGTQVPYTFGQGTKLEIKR

>  <pKd>
8.00

$$$$
>  <binder>
TR01H082-E22Hh/none-Hi-Kn010G3/L0272-k0 (antibody, V domains shown, one-arm) VH: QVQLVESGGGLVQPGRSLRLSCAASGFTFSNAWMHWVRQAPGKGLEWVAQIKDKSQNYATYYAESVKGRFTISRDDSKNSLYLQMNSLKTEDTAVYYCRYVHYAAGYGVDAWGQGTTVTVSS VL: DIVMTQSPLSLPVTPGEPASISCRSSQPLVHSNRQTYLHWYQQKPGQAPRLLIYKVSNRFSGVPDRFSGSGSGTDFTLKISRVEAEDVGVYYCGQGTQVPYTFGQGTKLEIK

>  <pKd>
7.13

$$$$
>  <binder>
TR01H040-E22Hh/none-Hi-Kn010G3/TR01L013-k0 (antibody, V domains shown, one-arm) VH: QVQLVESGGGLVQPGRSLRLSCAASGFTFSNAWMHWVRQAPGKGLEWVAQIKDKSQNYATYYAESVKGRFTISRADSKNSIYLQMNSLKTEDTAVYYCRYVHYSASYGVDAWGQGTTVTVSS VL: DIVMTQSPLSLPVTPGEPASISCQASESLVHSNRNTYLHWYLQKPGQSPQLLIYKVSNRFRGVPDRFSGSGSGTDFTLKISRVEAEDVGVYYCGQGTQVPYTFGQGTKVEIE

>  <pKd>
7.38

$$$$
>  <binder>
TR01H070-E22Hh/none-Hi-Kn010G3/L0000-k0 (antibody, V domains shown, one-arm) VH: QVQLVESGGGVVQPGGSLRLSCAASGFTFSNAWMHWVRQAPGKGLEWVAQIKDKSQNYATYYAESVKGRFTISRDDSKNSLYLQMNSLKTEDTAVYYCRYVHYAASYGVDYWGQGTTVTVSS VL: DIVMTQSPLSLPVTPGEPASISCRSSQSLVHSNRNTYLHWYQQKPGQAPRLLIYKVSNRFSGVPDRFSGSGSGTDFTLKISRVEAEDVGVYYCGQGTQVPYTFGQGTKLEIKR

>  <pKd>
6.92

$$$$
